tested.target: acyl-CoA:cholesterol acyltransferase (ACAT)
measurement.notes: In vitro ACAT inhibition: formation of radiolabeled cholesterol oleate from radiolabeled oleic acid in rabbit intestinal microsomes
test.context: tissue preparation containing rabbit intestinal microsomes, read-out: IC₅₀
property: IC50 (µM)
Numbers only; they are read as µM.

{"columns": ["line.notation", "uom", "IC50"],
 "data": [
  ["CCCCCCCCCCCCCCNC(=O)Nc1c(C)cccc1Cl", "µM", 0.027],
  ["CCCCCCCCCCC(C)(C)NC(=O)Nc1c(CC)cccc1CC", "µM", 0.052],
  ["CCCCCCCC/C=C\\CCCCCCCCNC(=O)Nc1c(CC)cccc1C(C)C", "µM", 0.037],
  ["CCCCCCCCCCNC(=O)Nc1c(C)cccc1C(C)(C)C", "µM", 0.2],
  ["CCCCCCCCCCNC(=O)Nc1c(C)cccc1C(C)C", "µM", 0.21]
]}

Using the record for "CCCCCCCC/C=C\CCCCCCCCNC(=O)Nc1c(C)cccc1Cl" , report its IC50.
0.18
